Kindly state IC50 for each of the entries shown.
Tested on: SNG-M
Assay: cells
Format: functional, cell-based
Settings: Homo sapiens
Description: SANGER: Inhibition of human SNG-M cell growth in a cell viability assay.
Enter your answer as a number in nM; do not include the unit.

Please look at this molecule and report its IC50: Cn1cncc1[C@@](N)(c1ccc(Cl)cc1)c1ccc2c(c1)c(-c1cccc(Cl)c1)cc(=O)n2C
204

Please look at this molecule and report its IC50: CCC1=C[C@@H]2CN(C1)Cc1c([nH]c3ccccc13)[C@@](C(=O)OC)(c1cc3c(cc1OC)N(C)[C@H]1[C@@](O)(C(=O)OC)[C@H](OC(C)=O)[C@]4(CC)C=CCN5CC[C@]31[C@@H]54)C2
3.88

Please look at this molecule and report its IC50: Cc1ccc(Nc2nccc(N(C)c3ccc4c(C)n(C)nc4c3)n2)cc1S(N)(=O)=O
4090

Please look at this molecule and report its IC50: C=CCc1cccc(/C=N/NC(=O)CN2CCN(Cc3ccccc3)CC2)c1O
1220

----------
Test system: OVCAR-4;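 further: growth inhibition of human OVCAR-4 cells, measured with a cell viability assay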
Test: cells
Type: functional, cell-based, Homo sapiens
Details: Homo sapiens, OVCAR-4
Description: SANGER: Inhibition of human OVCAR-4 cell growth in a cell viability assay.
pIC50: −log10 of the molar value.
Kindly state pIC50 for each of the entries shown.

Please look at this molecule and report its pIC50: CCc1nc(N)nc(N)c1-c1ccc(Cl)cc1 [PYRIMETHAMINE]
5.38

Please look at this molecule and report its pIC50: Nc1ccn([C@@H]2O[C@H](CO)[C@@H](O)[C@@H]2O)c(=O)n1 [CYTARABINE]
< 5.70

Please look at this molecule and report its pIC50: O=C(c1cc(Cc2n[nH]c(=O)c3ccccc23)ccc1F)N1CCN(C(=O)C2CC2)CC1 [OLAPARIB]
< 5.30

Please look at this molecule and report its pIC50: CN(C)C/C=C/C(=O)Nc1cc2c(Nc3ccc(F)c(Cl)c3)ncnc2cc1O[C@H]1CCOC1 [AFATINIB]
< 6.30

----------
Test system: VMRC-RCZ
Experiment: cells
Format: functional, cell-based
Conditions: Homo sapiens
Description: SANGER: Inhibition of human VMRC-RCZ cell growth in a cell viability assay.
pIC50: −log10 of the molar value.
Kindly state pIC50 for each of the entries shown.

Please look at this compound and report its pIC50: CCOc1nc(NC(=O)Cc2cc(OC)ccc2OC)cc(N)c1C#N
< 5.00

Please look at this compound and report its pIC50: Cn1cncc1[C@@](N)(c1ccc(Cl)cc1)c1ccc2c(c1)c(-c1cccc(Cl)c1)cc(=O)n2C [TIPIFARNIB]
5.50

Please look at this compound and report its pIC50: Cc1ccc(Nc2nccc(N(C)c3ccc4c(C)n(C)nc4c3)n2)cc1S(N)(=O)=O [PAZOPANIB]
< 5.10

Please look at this compound and report its pIC50: CN(c1ncccc1CNc1nc(Nc2ccc3c(c2)CC(=O)N3)ncc1C(F)(F)F)S(C)(=O)=O [PF-00562271]
< 5.59

Please look at this compound and report its pIC50: CN(Cc1cnc2nc(N)nc(N)c2n1)c1ccc(C(=O)N[C@@H](CCC(=O)O)C(=O)O)cc1 [METHOTREXATE]
< 6.70

Please look at this compound and report its pIC50: O=C(c1cc(Cc2n[nH]c(=O)c3ccccc23)ccc1F)N1CCN(C(=O)C2CC2)CC1 [OLAPARIB]
< 5.30

Please look at this compound and report its pIC50: Cc1cnc(-c2cnc(NCCNc3ccc(C#N)cn3)nc2-c2ccc(Cl)cc2Cl)[nH]1 [LADUVIGLUSIB]
< 5.59
